These measurements were taken from patent US20190309059A1.

# TARGET OR TEST SYSTEM: his-labeled human IL-13 (immunogen A) (human) (UniProt P35225)
# PROTOCOL DETAILS: SPR (Biacore), antibody captured by anti-human Fc, immunogen A as analyte

BINDER	koff [s⁻¹]
c28A2E11 (mouse-human chimeric IL-13 antibody) (antibody, V domains shown) VH: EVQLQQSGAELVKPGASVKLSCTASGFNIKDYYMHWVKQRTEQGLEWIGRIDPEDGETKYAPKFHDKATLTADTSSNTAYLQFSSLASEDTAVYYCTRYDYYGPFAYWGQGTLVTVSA VL: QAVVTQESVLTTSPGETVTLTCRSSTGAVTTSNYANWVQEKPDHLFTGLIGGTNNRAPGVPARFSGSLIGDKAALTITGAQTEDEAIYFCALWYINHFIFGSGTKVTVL	0.00438
